Reference source: PubChem BioAssay (NCI)

Tested on: MDA-MB-435 melanoma
Test: NCI-60 one-dose screen, 48 h
Details: 10 µM unless noted
The panel holds about 83,000 compounds, 20% with a hit somewhere; the sample as a whole holds those more often. The source made the active and inactive calls. How the source made its calls: active means growth percent below 10; inactive means the rest.
Pick one and only one: active, inactive

CC#CC(=O)N1CCC[C@H]1c1nc(-c2ccc(C(=O)Nc3ccccn3)cc2)c2c(N)nccn12 :: inactive
COC(=O)[C@@H](OC)[C@@H]1Cc2cc3cc(OC4CC(OC5CC(O)C(O)C(C)O5)C(O)C(C)O4)c(C)c(O)c3c(O)c2C(=O)[C@H]1OC1CC(OC2CC(OC3CC(C)(O)C(O)C(C)O3)C(O)C(C)O2)C(O)C(C)O1 (stereo not given in full) :: active

For this compound, state the assay outcome: CCc1ccc(/C=C/c2ccc(O)c3ncccc23)[n+](C)c1
inactive

For this compound, state the assay outcome: O=C(O)c1ccc2c(c1)nc(Nc1cccc(Cl)c1)c1ccncc12
active

For this compound, state the assay outcome: COc1cc(N2CCC(N(C)C)CC2)ccc1Nc1ncc(Cl)c(Nc2ccccc2P(C)(C)=O)n1
inactive

For this compound, state the assay outcome: Nc1ccc(S(=O)(=O)O)c2cc(S(=O)(=O)O)cc(O)c12
inactive

----------
System: MDA-MB-435 melanoma
Assay: NCI-60 one-dose screen, 48 h (100 = growth as untreated, 0 = no growth, -100 = all killed)
Conditions: 10 µM unless noted
Protocol: Growth inhibition of the MDA-MB-435 human Melanoma tumor cell line is measured as a screen for anti-cancer activity. Cells are grown in 96 well plates and exposed to the test compound for 48 hours. Compounds are tested at a single concentration, which is 10^-5 M for most compounds. The reported endpoint is percent growth (GI% or GIPRCNT), where numbers from 0 - 100% represent growth inhibition, and numbers from -100% - 0 represent cell death. […]
Compounds without any hit were thinned out: in the full panel of roughly 83,000, 20% have a hit.
Catalogue of growth readings, one per entry.
Give your result in % as a bare value.

Lookup result for CN1CC[C@@H](c2c(O)cc(O)c3c(=O)cc(-c4ccccc4Cl)oc23)[C@@H]1CO ; measured growth: -67.9

Lookup result for COC(=O)N[C@@H](C)CNc1nccc(-c2cn(C(C)C)nc2-c2cc(Cl)cc(NS(C)(=O)=O)c2F)n1 ; measured growth: 25.5

Lookup result for CCN1CCN(Cc2ccc(Cc3ncc(F)c(-c4cc(F)c5nc(C)n(C(C)C)c5c4)n3)nc2)CC1 ; measured growth: 45.9

Lookup result for C[C@@H](Oc1cc(C(=O)Nc2ccc(C(=O)N3CCN(C)CC3)cc2)nnc1N)c1c(Cl)ccc(F)c1Cl ; measured growth: 68.8

Lookup result for Cc1c(Cn2c(C)nc3c(C(=O)O)cc(N4CCOCC4)cc32)cccc1C(F)(F)F ; measured growth: 106

Lookup result for O=C(O)c1ccc(Nc2ncc3c(n2)-c2ccc(Cl)cc2C(c2c(F)cccc2F)=NC3)cc1 ; measured growth: 70.7

Lookup result for C[C@@H]1COCCN1c1cc(C2([S@](C)(=N)=O)CC2)nc(-c2ccnc3[nH]ccc23)n1 ; measured growth: 31

Lookup result for COc1cc2cc(NCc3ccc(Cl)cc3)nc(C)c2cc1OC ; measured growth: 10.9

Lookup result for COc1ccc(-c2nocc2-c2cc(OC)c(OC)c(OC)c2)cc1 ; measured growth: -54.4

----------
Test system: NCI-H322M lung
Test: NCI-60 one-dose screen, 48 h
Details: 10 µM unless noted
This is part of a sample that, as a whole, favours compounds with a hit. Of some 83,000 tested, about 20% had one in any assay. Activity calls are given as the source filed them. How the source made its calls: active means growth percent below 10; inactive means the rest.
Pick one and only one: YES = active, NO = inactive

Worked cases, answers included:
Cc1cccc(Cl)c1NC(=O)c1cnc(Nc2cc(N3CCOCC3)cc(N3CCOCC3)c2)s1 :: YES
Cc1ccc(N=C2CSc3nnc(-c4csc5c4CCCC5)n3N2)cc1 :: NO
Cc1cc(N2CCCC2)nc(N(CCCNc2ccnc3cc(Cl)ccc23)Cc2ccc3c(c2)OCO3)n1 :: YES
O=c1[nH]c([C@@H]2CCCN2)nc2c1oc1ccc(Cl)cc12 :: NO

For this molecule, state the assay outcome: CS(=O)(=O)CCNCc1ccc(-c2ccc3ncnc(Nc4ccc(OCc5cccc(F)c5)c(Cl)c4)c3c2)o1
NO

For this molecule, state the assay outcome: Nc1c(Cl)cccc1[N+](=O)[O-]
NO

For this molecule, state the assay outcome: Cc1ccc(NC(=O)NC(=O)CSc2nc3ccccc3nc2C)cc1
NO

For this molecule, state the assay outcome: Cn1cnc(-c2cc3nccc(Oc4ccc(NC(=S)NC(=O)Cc5ccccc5)cc4F)c3s2)c1
NO

For this molecule, state the assay outcome: N#Cc1cc2[nH]c3ccc(OC(F)(F)F)cc3c2oc1=O
NO

For this molecule, state the assay outcome: O=C(NO)c1ccc(Cn2c(=O)n(-c3ccccc3F)c(=O)c3ccccc32)cc1
NO

----------
Test system: SNB-19 CNS
Assay: NCI-60 one-dose screen, 48 h (100 = growth as untreated, 0 = no growth, -100 = all killed)
Details: 10 µM unless noted
The panel holds about 83,000 compounds, 20% with a hit somewhere; the sample as a whole holds those more often.
Mark F for growth values under 40%, and T for everything at or above.

Nc1nc(=S)c2ncn(C3OC(COC(=O)c4ccc(Cl)cc4)C(OC(=O)c4ccc(Cl)cc4)C3OC(=O)c3ccc(Cl)cc3)c2[nH]1 (centres undefined) :: T
O=C(Cc1ccc(-c2ccc(OCCN3CCOCC3)cc2)cn1)NCc1ccccc1 :: F
COc1ccc(F)c(F)c1C(=O)c1cnc(NC2CCN(S(C)(=O)=O)CC2)nc1N :: F
Cc1cc(N2CCOCC2)nc(N(CCNc2ccnc3cc(Cl)ccc23)Cc2cccs2)n1 :: T

Given the entry NC[C@@](O)(c1ccc(Cl)cc1)c1ccc(-c2cn[nH]c2)cc1 , answer whether its growth meets or surpasses 40%.
F

Given the entry COCCN1CCN(Cc2ccc(-c3n[nH]c4c3C(=O)c3c(NC(=O)NN5CCOCC5)cccc3-4)cc2)CC1 , answer whether its growth meets or surpasses 40%.
F

Given the entry CC(=O)C(C(C)=O)C(c1ccccc1)C(C(C)=O)C(C)=O , answer whether its growth meets or surpasses 40%.
T

Given the entry O=C(Nc1cccc(Cl)c1)Nc1ncc(CCNc2ncnc3ccsc23)s1 , answer whether its growth meets or surpasses 40%.
T

----------
Tested on: SF-295 CNS
Assay: NCI-60 one-dose screen, 48 h (100 = growth as untreated, 0 = no growth, -100 = all killed)
Conditions: 10 µM unless noted
This is part of a sample that, as a whole, favours compounds with a hit. Of some 83,000 tested, about 20% had one in any assay.
Returns: string. Value is t if measured growth is below 50%, and f if it is greater than or equal to it.

Worked cases, answers included:
Cc1cccc(NC(=O)[C@@H]2c3ccccc3C(=O)N(c3ccc(Cl)cc3)[C@H]2c2ccc(Cl)cc2)n1 :: t
CCCCCCCC(=O)SCC/C=C/[C@@H]1CC(=O)NCc2cc(ccn2)C2=N[C@@](C)(CS2)C(=O)N[C@@H](C(C)C)C(=O)O1 :: t
CNC(=O)c1cccc2cc(Oc3ccnc4cc(OCC5(N)CC5)c(OC)cc34)ccc12 :: f
COC(=O)[C@H](Cc1ccc(O)cc1)NC(=O)[C@@H](OC)[C@@H]1Cc2cc3cc(OC4CC(OC5CC(O)C(O)C(C)O5)C(O)C(C)O4)c(C)c(O)c3c(O)c2C(=O)[C@H]1OC1CC(OC2CC(OC3CC(C)(O)C(O)C(C)O3)C(O)C(C)O2)C(O)C(C)O1 (some centres undefined) :: t
CC(C)[C@@H](C)/C=C/[C@@H](C)[C@H]1CCC2=C3C=CC4=CC(=O)CC[C@]4(C)[C@H]3CC[C@@]21C :: f

Hello, I'm reviewing records and need to know if growth of CC1CCC(n2cnc3c(Cl)ncnc32)O1 (centres undefined) is below 50%. Could you check?
f

Hello, I'm reviewing records and need to know if growth of CCOc1cc2ncc(C#N)c(Nc3ccc(OCc4ccccn4)c(Cl)c3)c2cc1NC(=O)/C=C/CN(C)C is below 50%. Could you check?
f

Hello, I'm reviewing records and need to know if growth of O=C(COc1cccc(/C=C2\Cc3ccc(Cl)cc3C2=O)c1)Nc1nccs1 is below 50%. Could you check?
f

Hello, I'm reviewing records and need to know if growth of N#Cc1c(NC(=O)c2ccco2)[n+]([O-])c2cc(F)c(F)cc2[n+]1[O-] is below 50%. Could you check?
f

Hello, I'm reviewing records and need to know if growth of O=C(NO)c1ccc(Cn2c(=O)n(-c3ccccc3F)c(=O)c3ccccc32)cc1 is below 50%. Could you check?
t

Hello, I'm reviewing records and need to know if growth of CN1CCN(c2nc(NCCNc3ccnc4cc(Cl)ccc34)c3ccccc3n2)CC1 is below 50%. Could you check?
t

Hello, I'm reviewing records and need to know if growth of CN1C/C=C\CCOc2cccc(c2)-c2ccnc(n2)Nc2cccc(c2)C1 is below 50%. Could you check?
t

Hello, I'm reviewing records and need to know if growth of Cn1cc(-c2ccc(F)c(C(F)(F)F)c2)nc1C1CCN(c2ncnc3[nH]ncc23)CC1 is below 50%. Could you check?
f

Hello, I'm reviewing records and need to know if growth of COc1cc2ncnc(Oc3cccc(NC(=O)Nc4cc(C(C)(C)C(F)(F)F)on4)c3)c2cc1OC is below 50%. Could you check?
t

Hello, I'm reviewing records and need to know if growth of CCN(CC)Cc1cc(Nc2cc(C(F)(F)F)c(C#N)c3nc4ccccc4n23)ccc1O is below 50%. Could you check?
t

Hello, I'm reviewing records and need to know if growth of Cn1cc(-c2ncnc3ccc(-c4cnc(Cl)c(NS(C)(=O)=O)c4)cc23)c2ccccc21 is below 50%. Could you check?
t

Hello, I'm reviewing records and need to know if growth of CCN(CCCOc1ccc2c(Nc3cc(CC(=O)Nc4cccc(F)c4)[nH]n3)ncnc2c1)CCOP(=O)(O)O is below 50%. Could you check?
f

Hello, I'm reviewing records and need to know if growth of O=C(NOCCO)c1ccc2cncn2c1Nc1ccc(I)cc1F is below 50%. Could you check?
f
